Molecular target: Ornithine decarboxylase (Homo sapiens)
Assay: Activity of ornithine decarboxylase in human DU145 cells assessed per ug DNA at 100 uM after 72 hrs in presence of serum amine oxidase inhibitor aminoguanidine (RVb = 7.5+/- 0.9 pmol/h per ug DNA)
Type: cell-based
Conditions: DU-145
Parameter measured: Activity (pmol/h)
Only the number, expressed in pmol/h, is required.

Some compounds with known Activity results, for comparison:
[in] Enter reported Activity observed with Ornithine decarboxylase (Homo sapiens) for C[C@H](N)CCNCCCCN
[out] 3.5

[in] Query the reported Activity for Ornithine decarboxylase (Homo sapiens); item: CC(N)CCCNCCCN (centres undefined)
[out] 3.8

[in] Give recorded Activity with Ornithine decarboxylase (Homo sapiens) for the following compound: CC(CN)CNCCCCN (centres undefined)
[out] 9.1

Now consider the entry below.
[in] So what Activity did CC(CCN)NCCCCN (centres undefined) get with Ornithine decarboxylase (Homo sapiens)?
[out] 5.4
